Target: human CMKLR1 (Homo sapiens, UniProt Q99788)
Construct: host or cells: HEK293A (Invitrogen), stably expressing human Gα15
Sequence (Q99788 whole entry): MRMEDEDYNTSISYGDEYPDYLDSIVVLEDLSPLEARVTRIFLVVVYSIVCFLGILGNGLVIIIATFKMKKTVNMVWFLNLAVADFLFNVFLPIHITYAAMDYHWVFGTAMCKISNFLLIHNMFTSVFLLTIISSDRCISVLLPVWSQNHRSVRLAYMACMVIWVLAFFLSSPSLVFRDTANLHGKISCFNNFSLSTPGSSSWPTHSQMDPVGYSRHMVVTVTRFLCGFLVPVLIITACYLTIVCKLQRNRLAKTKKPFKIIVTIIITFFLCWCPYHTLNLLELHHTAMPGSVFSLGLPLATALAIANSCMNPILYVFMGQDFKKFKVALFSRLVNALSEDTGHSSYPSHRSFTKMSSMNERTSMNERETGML
Experiment: Ca2+ mobilization (CellLux imaging) agonist assay in HEK293A cells expressing CMKLR1 and Gα15
Type: cell-based
Description: HEK293A cells (Invitrogen) expressing CMKLR1 and Gα15 were seeded at 5*10^4 cells/well in a poly-D-lysine coated 96-well black well/clear bottom plate (BD Falcon) and cultured overnight. From eighteen to twenty-four hours later, cells were loaded with FLUO4-AM (Invitrogen). […] Fluorescence data was generated in duplicate and experiments were repeated for at least three times. […] Signals were normalized to background fluorescence. […]
Square brackets hold non-standard residues; d marks the D form. Peptide text beside a SMILES is read from it.
So I've got a bunch of compounds here, and I need their max response values.

In the examples that follow, each entry is paired with its recorded max response.
- CC(C)C[C@@H](NC(=O)[C@H](N)Cc1ccc(O)cc1)C(=O)N1CCC[C@H]1C(=O)NCC(=O)N[C@@H](CCC(N)=O)C(=O)N[C@@H](Cc1ccccc1)C(=O)N[C@@H](C)C(=O)N[C@@H](Cc1ccccc1)C(=O)N[C@H](CO)C(=O)O: 1,68 DF/F0
- CC(C)C[C@H](NC(=O)[C@@H](N)Cc1ccc(O)cc1)C(=O)N1CCC[C@H]1C(=O)NCC(=O)N[C@@H](CCC(N)=O)C(=O)N[C@@H](Cc1ccccc1)C(=O)N[C@@H](C)C(=O)N[C@@H](Cc1ccccc1)C(=O)N[C@H](CO)C(=O)O: 0,51 DF/F0

Batch: max response for all items listed.
1. CSCC[C@H](NC(=O)[C@@H](N)Cc1ccc(O)cc1)C(=O)N1CCC[C@H]1C(=O)NCC(=O)N[C@@H](CCC(N)=O)C(=O)N[C@@H](Cc1ccccc1)C(=O)N[C@@H](C)C(=O)N[C@@H](Cc1ccccc1)C(=O)N[C@H](CO)C(=O)O [compound 40] (H-YMPGQFAF[dS]-OH; N-terminus assumed)
2. C[C@H](NC(=O)[C@H](Cc1ccccc1)NC(=O)[C@H](CCC(N)=O)NC(=O)CNC(=O)[C@@H]1CCCN1C(=O)[C@H](CC(=O)O)NC(=O)[C@H](N)Cc1ccc(O)cc1)C(=O)N[C@@H](Cc1ccccc1)C(=O)N[C@H](CO)C(=O)O [compound 112] (H-[dY]DPGQFAF[dS]-OH; N-terminus assumed)

[reply]
1. 0,74 DF/F0
2. 1,12 DF/F0
